target: UniProtKB Q8NBP7; test: PCSK9 Alexa FRET Standard assay (displacement of AlexaFluor647 tagged cyclic peptide Reagent A); format: binding; details: PCSK9 Alexa FRET Standard assay, 0.5 nM PCSK9, 20 nM AF cyclic peptide Reagent A; read-out: IC50
pIC50: −log10 of the molar value. Counter-ions that a name gives are not always drawn. Starred links: 1 amine or outer side, 2 acyl side, 3 side chain; linkers in the order of their positions; H or OH if unused. Positions of bridges follow the written chain, without caps; N, C: chain ends. Non-standard residues stand in square brackets, D forms with d. Residues, ends and D or L forms follow the SMILES beside them. *: point of attachment. Phe(3-CH2NH2) = O=C([C@H](Cc1cccc(CN[*:3])c1)N[*:1])[*:2]; Trp(5-F) = N[C@@H](Cc1c[nH]c2ccc(F)cc12)C(=O)O; Pro(cis-4-F) = O=C(O)[C@@H]1C[C@H](F)CN1; X4 = O=C(CCSCc1cccc(CSCCN[*:1])c1)[*:2]; AEF = NCCOc1ccc(C[C@H](N)C(=O)O)cc1; X63 = c1ncc(C[*:2])nc1C[*:1]; αMeP = C[C@@]1(C(=O)O)CCCN1; Tfa = O=C(C(F)(F)F)*; Mpa = O=C(O)CCS
parameter measured: pIC50

Look over these answered cases.
COc1ccc(C[C@@H]2NC(=O)[C@H]([C@@H](C)O)NC(=O)[C@@H]3CCCN3C(=O)[C@H](Cc3c[nH]c4ccc(F)cc34)NC(=O)[C@H](Cc3c[nH]c4ccc(F)cc34)NC(=O)[C@@H](C)NC(=O)[C@H](CCCCN)NC(=O)CCSCc3cncc(n3)CSC[C@@H](C(N)=O)NC(=O)[C@]3(C)CCCN3C2=O)cc1 [Compound 090] ([Mpa]K[dA][Trp(5-F)][Trp(5-F)]PTY(Me)[αMeP]C-NH2; linker 1-10 via X63)	4.92 to 6.00
COc1ccc(C[C@@H]2NC(=O)[C@H]([C@@H](C)O)NC(=O)[C@@H]3C[C@H](F)CN3C(=O)[C@H](Cc3c[nH]c4ccc(F)cc34)NC(=O)[C@H](Cc3c[nH]c4ccc(F)cc34)NC(=O)[C@@H](C)NC(=O)[C@H](CCCCN)NC(=O)[C@@H](NC(=O)C(F)(F)F)CC(=O)NCCOc3ccc(cc3)C[C@@H](C(N)=O)NC(=O)[C@]3(C)CCCN3C2=O)cc1 [Compound 124] (Tfa-DK[dA][Trp(5-F)][Trp(5-F)][Pro(cis-4-F)]TY(Me)[αMeP][AEF]-NH2; lactam 1-10)	7.00 to 9.96

We now examine a further compound.
Prompt: # input compound: COc1ccc(C[C@@H]2NC(=O)[C@H]([C@@H](C)OC)NC(=O)[C@H](CCC(=O)O)NC(=O)[C@H](Cc3c[nH]c4ccc(F)cc34)NC(=O)[C@H](Cc3cccc(CN)c3)NC(=O)[C@@H](C)NC(=O)[C@H](C)NC(=O)CCSCc3cccc(c3)CSCCNC(=O)[C@]3(C)CCCN3C2=O)cc1 [Compound 343] (cyclo(A[dA][Phe(3-CH2NH2)][Trp(5-F)]ET(Me)Y(Me)[αMeP][X4])) ; wanted: its pIC50
Response: 7.00 to 9.96

----------
biological target: PCSK9 (Homo sapiens (Human)); experiment: PCSK9 Alexa FRET Standard assay (displacement of AlexaFluor647 tagged cyclic peptide Reagent A); type: binding; conditions: PCSK9 Alexa FRET Standard assay, 0.5 nM PCSK9, 20 nM AF cyclic peptide Reagent A; read-out: IC50
pIC50: −log10 of the molar value. Starred links: 1 amine or outer side, 2 acyl side, 3 side chain; linkers in the order of their positions; H or OH if unused. Positions of bridges follow the written chain, without caps; N, C: chain ends. Non-standard residues stand in square brackets, D forms with d. Residues, ends and D or L forms follow the SMILES beside them. Trp(5-F) = N[C@@H](Cc1c[nH]c2ccc(F)cc12)C(=O)O; Phe(4-CH2NH2) = NCc1ccc(C[C@H](N)C(=O)O)cc1; mXylylene(5-F) = Fc1cc(C[*:1])cc(C[*:2])c1; Heptanedioyl = O=C(CCCCCC(=O)[*:2])[*:1]; Pro(cis-4-F) = O=C(O)[C@@H]1C[C@H](F)CN1; αMeP = C[C@@]1(C(=O)O)CCCN1; Mpa = O=C(O)CCS
Recorded pIC50 by entry

NC(=O)[C@@H]1Cc2ccc(cc2)CNC(=O)CCCCCC(=O)NCC(=O)N[C@@H](Cc2c[nH]c3ccc(F)cc23)C(=O)N[C@@H](Cc2c[nH]c3ccc(F)cc23)C(=O)N[C@@H](CC(=O)O)C(=O)N[C@@H](Cc2cnc[nH]2)C(=O)N[C@@H](Cc2ccc(O)cc2)C(=O)N1 [Compound 455] (G[Trp(5-F)][Trp(5-F)]DHY[Phe(4-CH2NH2)]-NH2; linker N-7 via Heptanedioyl)	4.92 to 6.00
COc1ccc(C[C@@H]2NC(=O)[C@H]([C@@H](C)O)NC(=O)[C@@H]3C[C@H](F)CN3C(=O)[C@H](Cc3c[nH]c4ccc(F)cc34)NC(=O)[C@H](Cc3c[nH]c4ccc(F)cc34)NC(=O)[C@@H](C)NC(=O)CNC(=O)[C@@H](NC(C)=O)CCNCc3ccc(cc3)C[C@@H](C(N)=O)NC(=O)[C@]3(C)CCCN3C2=O)cc1	7.00 to 9.96
CCCCCCCCCCCCCCCC(=O)N[C@@H](CCC(=O)NCCOCCOCC(=O)NCCOCCOCC(=O)NCCCC[C@H](NC(C)=O)C(=O)NCCOCCOCCOCCOCCOCCOCCOCCOCCOCCOCCOCCOCCC(=O)N[C@@H]1CSCc2cccc(c2)CSC[C@@H](C(N)=O)NC(=O)[C@]2(C)CCCN2C(=O)[C@H](Cc2ccc(O)cc2)NC(=O)[C@H]([C@@H](C)O)NC(=O)N2C[C@@H](F)C[C@H]2C(=O)[C@H](Cc2c[nH]c3ccc(F)cc23)NC(=O)[C@H](Cc2c[nH]c3ccc(F)cc23)NC(=O)[C@@H](C)NC(=O)[C@H](C)NC1=O)C(=O)O	7.00 to 9.96

Prompt: # input molecule: COc1ccc(C[C@@H]2NC(=O)[C@H](C(C)C)NC(=O)[C@@H]3CCCN3C(=O)[C@H](Cc3c[nH]c4ccc(F)cc34)NC(=O)[C@H](Cc3c[nH]c4ccc(F)cc34)NC(=O)[C@@H](C)NC(=O)[C@H](CCCCN)NC(=O)CCSCc3cc(F)cc(c3)CSC[C@@H](C(N)=O)NC(=O)[C@]3(C)CCCN3C2=O)cc1 [Compound 010] ([Mpa]K[dA][Trp(5-F)][Trp(5-F)]PVY(Me)[αMeP]C-NH2; linker 1-10 via mXylylene(5-F)) ; wanted: its pIC50
Response: 6.00 to 7.00

Prompt: # input molecule: COc1ccc(C[C@@H]2NC(=O)[C@H]([C@@H](C)O)NC(=O)[C@@H]3C[C@H](F)CN3C(=O)[C@H](Cc3c[nH]c4ccc(F)cc34)NC(=O)[C@H](Cc3c[nH]c4ccc(F)cc34)NC(=O)[C@@H](C)NC(=O)CCCCCC(=O)NCc3ccc(cc3)C[C@@H](C(N)=O)NC(=O)[C@]3(C)CCCN3C2=O)cc1 [Compound 125] ([dA][Trp(5-F)][Trp(5-F)][Pro(cis-4-F)]TY(Me)[αMeP][Phe(4-CH2NH2)]-NH2; linker N-8 via Heptanedioyl) ; wanted: its pIC50
Response: 4.30 to 4.68

----------
Recorded IC50 by entry
molecular target: PCSK9 (Homo sapiens (Human), UniProt Q8NBP7); assay: PCSK9 Alexa FRET Standard assay (displacement of AlexaFluor647 tagged cyclic peptide Reagent A); format: binding; conditions: PCSK9 Alexa FRET Standard assay, 0.5 nM PCSK9, 20 nM AF cyclic peptide Reagent A; read-out: IC50
Sequence (Q8NBP7 153-692): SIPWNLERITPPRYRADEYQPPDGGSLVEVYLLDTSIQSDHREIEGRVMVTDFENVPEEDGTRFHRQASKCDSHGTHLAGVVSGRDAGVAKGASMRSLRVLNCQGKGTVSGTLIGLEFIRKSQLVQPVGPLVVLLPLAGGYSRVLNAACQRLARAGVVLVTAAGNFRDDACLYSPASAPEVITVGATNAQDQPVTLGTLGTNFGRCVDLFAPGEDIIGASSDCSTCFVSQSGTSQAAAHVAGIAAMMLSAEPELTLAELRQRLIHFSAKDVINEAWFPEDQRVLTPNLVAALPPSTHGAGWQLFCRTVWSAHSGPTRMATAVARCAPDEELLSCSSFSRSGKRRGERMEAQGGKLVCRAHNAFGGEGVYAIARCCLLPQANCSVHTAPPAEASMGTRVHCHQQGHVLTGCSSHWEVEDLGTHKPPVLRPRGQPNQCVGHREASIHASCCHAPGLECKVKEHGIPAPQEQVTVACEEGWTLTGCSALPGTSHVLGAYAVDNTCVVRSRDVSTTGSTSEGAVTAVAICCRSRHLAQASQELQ
Starred links: 1 amine or outer side, 2 acyl side, 3 side chain; linkers in the order of their positions; H or OH if unused. Positions of bridges follow the written chain, without caps; N, C: chain ends. Non-standard residues stand in square brackets, D forms with d. Residues, ends and D or L forms follow the SMILES beside them. X1 = O=C1CC[C@@H](C(=O)[*:1])N1CCCSCc1cccc(C[*:2])c1; X18 = O=C([C@@H](Cc1cccc(OCC=[*:3])c1)N[*:1])[*:2]; Ala(imidazol-2-yl) = N[C@@H](Cc1ncc[nH]1)C(=O)O; Phe(4-COOH) = N[C@@H](Cc1ccc(C(=O)O)cc1)C(=O)O; Trp(5-F) = N[C@@H](Cc1c[nH]c2ccc(F)cc12)C(=O)O; X3 = O=C(CCSCc1cc(F)cc(CSCCN[*:1])c1)[*:2]; X4 = O=C(CCSCc1cccc(CSCCN[*:1])c1)[*:2]; Lys(Me2) = CN(C)CCCC[C@H](N)C(=O)O; AllylGly = C=CC[C@H](N)C(=O)O; αMeP = C[C@@]1(C(=O)O)CCCN1

COc1ccc(C[C@@H]2NC(=O)[C@@H]3CCCCC(=O)N[C@H]4C[C@@H](C(=O)N3)N(C4)C(=O)[C@H](Cc3c[nH]c4ccc(F)cc34)NC(=O)[C@H](Cc3c[nH]c4ccc(F)cc34)NC(=O)[C@@H](C)NC(=O)[C@H](CCCN=[N+]=[N-])NC(=O)CCSCc3cccc(c3)CCSCNC(=O)[C@]3(C)CCCN3C2=O)cc1	0.11 to 100 nM
C[C@@H]1NC(=O)CCSCc2cccc(c2)CSCCNC(=O)[C@]2(C)CCCN2C(=O)[C@H](Cc2ccc(O)cc2)NC(=O)[C@H](C)NC(=O)[C@@H]2C/C=C\COc3cccc(c3)C[C@@H](NC(=O)[C@@H](C)NC1=O)C(=O)N[C@@H](Cc1c[nH]c3ccc(F)cc13)C(=O)N2 [Compound 498] (cyclo(AY[αMeP][X4]A[dA][X18][Trp(5-F)][AllylGly]); staple (Z) 7-9)	1000 to 12100 nM
C[C@@]12CCCN1C(=O)[C@H](Cc1ccc(O)cc1)NC(=O)[C@H](Cc1c[nH]cn1)NC(=O)[C@H](CC(=O)O)NC(=O)[C@H](Cc1c[nH]c3ccc(F)cc13)NC(=O)[C@H](Cc1c[nH]c3ccc(F)cc13)NC(=O)CNC(=O)[C@@H]1CCC(=O)N1CCCSCc1cccc(c1)CSC[C@@H](C(N)=O)NC2=O [Compound 481] (G[Trp(5-F)][Trp(5-F)]DHY[αMeP]C-NH2; linker N-8 via X1)	1000 to 12100 nM

Prompt: # input compound: CC(=O)N[C@@H]1CCCCNC(=O)c2ccc(cc2)C[C@@H](C(N)=O)NC(=O)[C@]2(C)CCCN2C(=O)[C@H](Cc2ccc(O)cc2)NC(=O)[C@H](Cc2cnc[nH]2)NC(=O)[C@H](CC(=O)O)NC(=O)[C@H](Cc2c[nH]c3ccc(F)cc23)NC(=O)[C@H](Cc2c[nH]c3ccc(F)cc23)NC(=O)CNC1=O [Compound 255] (Ac-[dK]G[Trp(5-F)][Trp(5-F)]DHY[αMeP][Phe(4-COOH)]-NH2; lactam 1-9) ; wanted: its IC50
Response: 100 to 1000 nM

Prompt: # input compound: COc1ccc(C[C@@H]2NC(=O)[C@H](Cc3ncc[nH]3)NC(=O)[C@H](CC(=O)O)NC(=O)[C@H](Cc3c[nH]c4ccc(F)cc34)NC(=O)[C@H](Cc3c[nH]c4ccc(F)cc34)NC(=O)[C@@H](C)NC(=O)[C@H](CCCCN(C)C)NC(=O)CCSCc3cc(F)cc(c3)CSCCNC(=O)[C@]3(C)CCCN3C2=O)cc1 [Compound 465] (cyclo(D[Ala(imidazol-2-yl)]Y(Me)[αMeP][X3][Lys(Me2)][dA][Trp(5-F)][Trp(5-F)])) ; wanted: its IC50
Response: 1000 to 12100 nM
